- Target: T1, human PD-L1 on CHO-K1 cells overexpressing human PD-L1 (human, UniProt Q9NZQ7 19-290)
- T1 construct: whole, on cells; also called CHO-K1/hPD-L1; CHO-K1-hPD-L1
- T1 sequence (Q9NZQ7 19-290): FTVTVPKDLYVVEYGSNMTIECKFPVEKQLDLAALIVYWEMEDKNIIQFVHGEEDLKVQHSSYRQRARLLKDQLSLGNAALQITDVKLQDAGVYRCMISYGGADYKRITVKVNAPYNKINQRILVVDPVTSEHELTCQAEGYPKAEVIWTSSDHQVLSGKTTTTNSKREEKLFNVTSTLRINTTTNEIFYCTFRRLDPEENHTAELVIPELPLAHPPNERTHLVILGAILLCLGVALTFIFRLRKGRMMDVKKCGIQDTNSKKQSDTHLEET
- Method summary: flow cytometry on CHO-K1 cells overexpressing human PD-L1 (CHO-K1/hPD-L1) [continued) E]
Maximum MFI by entry:
Give just the numeric value; MFI need not be written.

PR005263 (antibody, human IgG1, V domains shown, The HC entry is used) VH: QVQLVESGGGVVQPGMSLRLSCAASGFTFSSYGMYWVRQAPGKGQEWVASIRYTGTEKHYADSVKGRFTISRDNSKNTLYLEMNSLRVEDTAVYYCAKNRAIFGVVPDASDIRGQGTMVTVSS; 363000

Data point: PR002082 (antibody, human IgG1, V domains shown, HCAb; also called PTM variant of PR000960 (N28T, N31S)) VH: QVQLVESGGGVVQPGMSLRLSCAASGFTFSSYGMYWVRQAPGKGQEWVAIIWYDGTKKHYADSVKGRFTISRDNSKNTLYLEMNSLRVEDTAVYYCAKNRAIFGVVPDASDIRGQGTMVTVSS ; Maximum MFI = 381000
